Quick list: Binding with RBD (% of control ± SD) per entry.
measuredTarget: RBD of SARS-CoV-2 spike protein binding to hACE2 receptor (Severe acute respiratory syndrome coronavirus 2)

Please review the entries below; each comes with its answer.
compound	observed
O=c1cc(-c2ccccc2)oc2cc(O)c(O)c(O)c12 [Baicalein]	22.5 ± 5.1 % of control
COc1cc(/C=C/C(=O)CC(=O)/C=C/c2ccc(O)c(OC)c2)ccc1O [Curcumin]	100 ± 0.2 % of control
O=c1cc(-c2ccc(O)cc2)oc2cc(O)cc(O)c12 [Apigenin]	17.1 ± 4.1 % of control
CC(=O)c1c(O)c(C)c(O)c2c1OC1=CC(=O)C(C(C)=O)C(=O)C12C (centres unmarked) [Usnic acid]	22.0 ± 3.4 % of control
O[C@H]1[C@H](O)[C@@H](O)CN2CC[C@H](O)[C@H]12 [Castanospermine]	8.2 ± 2.3 % of control

Lookup: State its Binding with RBD (% of control ± SD): O=C(O[C@@H]1Cc2c(O)cc(O)cc2O[C@H]1c1ccc(O)c(O)c1)c1cc(O)c(O)c(O)c1 [(−)-catechin gallate]
Found: 37.4 ± 4.7 % of control

Lookup: State its Binding with RBD (% of control ± SD): O=c1c(O)c(-c2cc(O)c(O)c(O)c2)oc2cc(O)cc(O)c12 [Myricetin]
Found: 45.5 ± 5.4 % of control

Lookup: State its Binding with RBD (% of control ± SD): COc1ccc(Cc2nccc3cc(OC)c(OC)cc23)cc1OC [Papaverine, reference compound]
Found: 1.6 ± 0.2 % of control

Lookup: State its Binding with RBD (% of control ± SD): O=C(O)[C@H]1O[C@@H](Oc2cc3oc(-c4ccccc4)cc(=O)c3c(O)c2O)[C@H](O)[C@@H](O)[C@@H]1O [Baicalin]
Found: 10.3 ± 2.9 % of control

Lookup: State its Binding with RBD (% of control ± SD): O=c1c(-c2ccc(O)cc2)coc2cc(O)cc(O)c12 [Genistein]
Found: 22.1 ± 2.8 % of control

###

Quick list: Binding with RBD (% of control ± SD) per entry.
measuredTarget: RBD of SARS-CoV-2 spike protein binding to hACE2 receptor (Severe acute respiratory syndrome coronavirus 2, UniProt P0DTC2)

molecule	Binding with RBD (% of control ± SD)
O=c1cc(-c2ccc(O)c(O)c2)oc2cc(O)cc(O)c12	10.4 ± 4.7 % of control
O=C(OC[C@H]1O[C@@H](OC(=O)c2cc(O)c(O)c(OC(=O)c3cc(O)c(O)c(O)c3)c2)[C@H](OC(=O)c2cc(O)c(O)c(OC(=O)c3cc(O)c(O)c(O)c3)c2)[C@@H](OC(=O)c2cc(O)c(O)c(OC(=O)c3cc(O)c(O)c(O)c3)c2)[C@@H]1OC(=O)c1cc(O)c(O)c(OC(=O)c2cc(O)c(O)c(O)c2)c1)c1cc(O)c(O)c(OC(=O)c2cc(O)c(O)c(O)c2)c1	79.4 ± 2.3 % of control
Oc1cc(O)c2c(c1)O[C@H](c1ccc(O)c(O)c1)[C@@H](O)[C@@H]2c1c(O)cc(O)c2c1O[C@H](c1ccc(O)c(O)c1)[C@@H](O)C2	32.3 ± 3.7 % of control
O=C1O[C@H]2[C@@H]3OC(=O)c4cc(O)c(O)c(O)c4-c4c(O)c(O)c5oc(=O)c6c(c(O)c(O)c7oc(=O)c4c5c76)-c4c(cc(O)c(O)c4O)C(=O)OC[C@H]3OC(O)[C@@H]2OC(=O)c2cc(O)c(O)c(O)c2-c2c1cc(O)c(O)c2O (mixture of isomers)	32.3 ± 5.9 % of control
O=c1c(O)c(-c2ccc(O)c(O)c2)oc2cc(O)ccc12	22.4 ± 1.9 % of control

Lookup: State its Binding with RBD (% of control ± SD): C=C(C)[C@@H]1CCC(C)=C[C@H]1c1c(O)cc(CCCCC)cc1O [Cannabidiol, reference compound]
Found: 1.4 ± 0.3 % of control

Lookup: State its Binding with RBD (% of control ± SD): Oc1cc(O)c2c(c1)O[C@H](c1ccc(O)c(O)c1)[C@H](O)[C@H]2c1c(O)cc(O)c2c1O[C@H](c1ccc(O)c(O)c1)[C@H](O)C2
Found: 31.1 ± 3.6 % of control

Lookup: State its Binding with RBD (% of control ± SD): C[C@@H]1O[C@@H](O[C@H]2[C@H](Oc3cc(O)c4c(c3)O[C@H](c3ccc(O)cc3)CC4=O)O[C@H](CO)[C@@H](O)[C@@H]2O)[C@H](O)[C@H](O)[C@H]1O
Found: 23.6 ± 6.4 % of control

Lookup: State its Binding with RBD (% of control ± SD): O=C(OC1Cc2c(O)cc(O)cc2OC1c1cc(O)c(O)c(O)c1)c1cc(O)c(O)c(O)c1 (single isomer, unassigned; (+)) [(+)-epigallocatechin gallate]
Found: 87.5 ± 6.8 % of control

Lookup: State its Binding with RBD (% of control ± SD): C=C(C)[C@H]1CC=C(C)CC1
Found: 27.2 ± 6.4 % of control

Lookup: State its Binding with RBD (% of control ± SD): C[S+]([O-])CCCCN=C=S (stereo not drawn)
Found: 30.2 ± 3.6 % of control

Lookup: State its Binding with RBD (% of control ± SD): CC(C)c1cc2c(c(O)c1O)[C@@]1(C(=O)O)CCCC(C)(C)[C@@H]1CC2
Found: 27.1 ± 5.1 % of control

The reported numbers originate from patent US20220047545A1.
